Kindly state AC50 for each of the entries shown.
- Subject Of Test: human PAH with the R408W mutation (Homo sapiens, UniProt P00439, R408W)
- Construct: expressed in transfected cells
- Sequence (P00439 1-452 R408W): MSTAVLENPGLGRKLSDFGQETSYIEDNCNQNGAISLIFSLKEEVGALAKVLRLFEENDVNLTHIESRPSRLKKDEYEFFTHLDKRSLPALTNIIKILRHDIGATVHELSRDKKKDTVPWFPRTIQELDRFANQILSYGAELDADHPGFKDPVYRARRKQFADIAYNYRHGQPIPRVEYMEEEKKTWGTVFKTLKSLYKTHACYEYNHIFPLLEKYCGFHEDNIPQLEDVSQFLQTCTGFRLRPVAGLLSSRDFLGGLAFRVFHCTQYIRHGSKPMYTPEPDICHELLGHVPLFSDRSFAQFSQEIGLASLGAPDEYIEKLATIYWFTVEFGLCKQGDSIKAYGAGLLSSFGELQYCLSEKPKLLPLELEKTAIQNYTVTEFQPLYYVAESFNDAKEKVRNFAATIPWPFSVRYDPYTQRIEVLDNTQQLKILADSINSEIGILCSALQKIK
- Assay Notes: Cell Based Phenylalanine Flux Assay
- Details: A375 cells expressing human R408W PAH; 24 hrs compound incubation; 13C-Tyrosine by LC-MS; average where tested multiple times; read-out: AC50

The following compounds have reported results that may help.
Compound	Subject Of Test	Reported Result
C[C@H]1CN(C(=O)c2nnc(-c3ccccn3)o2)[C@H](c2cc3ccccc3cn2)c2nc[nH]c21 (single isomer, unassigned)	human PAH with the R408W mutation (Homo sapiens, UniProt P00439, R408W)	500 to 1000 nM
O=C(c1cnc(-c2ccccn2)s1)N1CCc2[nH]cnc2C1c1ccc2ccccc2n1 (stereo in doubt) [Example 1]	human PAH with the R408W mutation (Homo sapiens, UniProt P00439, R408W)	< 500 nM
COCc1ccc2c(C(=O)N3CCc4[nH]cnc4[C@H]3c3cc4ccccc4cn3)cnn2c1	human PAH with the R408W mutation (Homo sapiens, UniProt P00439, R408W)	< 500 nM
O=C(c1cnco1)N1CCc2[nH]cnc2[C@H]1c1ccc2ccccc2c1	human PAH with the R408W mutation (Homo sapiens, UniProt P00439, R408W)	500 to 1000 nM
Cc1nc(C(C)(C)C#N)oc1C(=O)N1CCc2[nH]cnc2C1c1ccc2ccccc2n1 (stereo in doubt) [Example 117]	human PAH with the R408W mutation (Homo sapiens, UniProt P00439, R408W)	1000 to 5000 nM

Can you give me AC50 for all of these, one by one?
1. Cc1ncoc1C(=O)N1CCc2[nH]cnc2[C@@H]1c1cn2ccccc2n1
2. c1ccc(-c2nnc(N3CCc4[nH]cnc4[C@H]3c3cc4ccccc4cn3)o2)nc1

> 5000 nM
500 to 1000 nM

----------
- Subject Of Test: human PAH with the R408W mutation (Homo sapiens, UniProt P00439, R408W)
- Construct: expressed in transfected cells
- Sequence (P00439 1-452 R408W): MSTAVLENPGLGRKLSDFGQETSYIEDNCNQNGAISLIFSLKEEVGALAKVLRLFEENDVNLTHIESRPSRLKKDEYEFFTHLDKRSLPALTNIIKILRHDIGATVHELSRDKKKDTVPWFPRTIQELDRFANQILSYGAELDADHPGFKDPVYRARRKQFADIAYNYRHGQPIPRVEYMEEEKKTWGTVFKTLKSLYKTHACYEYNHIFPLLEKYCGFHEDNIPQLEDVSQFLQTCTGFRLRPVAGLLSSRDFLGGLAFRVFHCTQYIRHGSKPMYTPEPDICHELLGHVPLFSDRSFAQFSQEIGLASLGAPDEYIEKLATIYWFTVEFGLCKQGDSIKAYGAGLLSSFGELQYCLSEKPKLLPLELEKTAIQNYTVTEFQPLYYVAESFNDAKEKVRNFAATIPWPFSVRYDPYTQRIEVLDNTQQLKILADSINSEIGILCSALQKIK
- Assay Notes: Cell Based Phenylalanine Flux Assay
- Parameters: scale not given here
- Details: A375 R408W cells, 24 hrs with compound, then 20 μM sepiapterin and 800 μM 13C9,15N-Phenylalanine for 4 hours; 13C-Tyrosine by LC-MS; average where tested multiple times
Measurement Name: AC50

Examples with their reported AC50 follow.
Compound	Subject Of Test	Reported Result
O=C(c1ccnn1C(F)F)N1CCc2[nH]cnc2C1c1ncc2ccccc2n1 (stereo not drawn)	human PAH with the R408W mutation (Homo sapiens, UniProt P00439, R408W)	E, E
O=C(c1oc(N2CCOCC2)nc1C(F)F)N1CCc2[nH]cnc2C1c1ncc2ccccc2n1 (stereo not drawn)	human PAH with the R408W mutation (Homo sapiens, UniProt P00439, R408W)	E, E
O=C(c1oc(-c2cccnc2)nc1C(F)F)N1CCc2[nH]cnc2C1c1ncc2ccccc2n1 (stereo not drawn)	human PAH with the R408W mutation (Homo sapiens, UniProt P00439, R408W)	E, E
Cn1cc(-c2nc(C(F)F)c(C(=O)N3CCc4[nH]cnc4C3c3ncc4ccccc4n3)o2)cn1 (stereo not drawn)	human PAH with the R408W mutation (Homo sapiens, UniProt P00439, R408W)	E, E
CC(C)(O)c1nc(C(F)(F)F)c(C(=O)N2CCc3[nH]cnc3C2c2ccc3ccccc3n2)o1 (stereo not drawn)	human PAH with the R408W mutation (Homo sapiens, UniProt P00439, R408W)	E, E

# per-item lookup of AC50; items listed below
1. Nc1nc(C(F)(F)F)c(C(=O)N2CCc3[nH]cnc3C2c2cn3ccccc3n2)o1 (stereo not drawn)
2. O=C(c1oc(-c2ncccn2)nc1C(F)F)N1CCc2[nH]cnc2C1c1ncc2ccccc2n1 (stereo not drawn)
3. Cc1nnc(CC(=O)N2CCc3[nH]cnc3C2c2cn3ccccc3n2)o1 (stereo not drawn)

["E, E", "E, E", "E, E"]

Can you give me AC50 for all of these, one by one?
1. Cn1cnc(-c2nc(C(F)F)c(C(=O)N3CCc4[nH]cnc4C3c3ncc4ccccc4n3)o2)c1 (stereo not drawn)
2. COCCNc1nnc(C(=O)N2CC(C)c3[nH]cnc3C2c2cc3ccccc3cn2)o1 [(4S, 7S) diastereomer of 5-[4-(isoquinolin-3-yl)-7-methyl-1H]

1. E, E
2. E, E

Go through the list and state AC50 for each entry.
1. CC1CN(C(=O)c2oc(-c3ccccn3)nc2C(F)(F)F)C(c2cc3ccccc3cn2)c2nc[nH]c21 [(4S, 7S) diastereomer of (4-(isoquinolin-3-yl)-7-methyl-6,7-]
2. CC(C)(O)c1nc(C(F)F)c(C(=O)N2CCc3[nH]cnc3C2c2ncc3ccccc3n2)o1 (stereo not drawn)
3. COc1ccc(-c2nc(C(F)F)c(C(=O)N3CCc4[nH]cnc4C3c3ncc4ccccc4n3)o2)nc1 (stereo not drawn)
4. CC1CN(C(=O)c2nnc(N3CCN(C)CC3)o2)C(c2cc3ccccc3cn2)c2nc[nH]c21 [(4S, 7R) diastereomer of 3-[7-methyl-5-[5-(4-methylpiperazin]
5. Cc1nnc(C(=O)N2CC(C)c3[nH]cnc3C2c2cc3ccccc3cn2)o1 [(4S, 7S) diastereomer of 3-[7-methyl-5-(5-methyl-1,3,4-oxadi]
6. Cn1cc(-c2nc(C(F)(F)F)c(C(=O)N3CCc4[nH]cnc4C3c3ncc4ccccc4n3)o2)cn1 (stereo not drawn)
7. O=C(c1oc(-c2cnccn2)nc1C(F)F)N1CCc2[nH]cnc2C1c1ncc2ccccc2n1 (stereo not drawn)

["E, E", "E, E", "E, E", "E, E", "E, E", "E, E", "E, E"]

Values from patent US20250262201A1
